Each recorded value in this set is attributed to patent US20180273635A1.

- experimental-target: HER2 expressed on the surface of cells (human, UniProt P04626 23-1255)
- experiment-notes: cell-based or functional assay
measured-metric: growth inhibition span (percentage of cells killed), NCI-N87 cells (%)
Give the number; % is assumed, so skip it.

Please review the entries below; each comes with its answer.
[
  {
    "binder": "Variant 14019 (antibody, name in Kabat numbering, V domains shown, also called v14019) VH: EVQLVESGGGLVQPGGSLRLSCAASGFTFQDYTMDWVRQAPGKGLEWVGDVNPNSGGSIYNQRFKGRFTFSVDRSWNTLYLQMNSLRAEDTAVYYCARNLGPSFYFDYWGQGTLVTVSS VL: DIQMTQSPSSLSASVGDRVTITCKASQDVSIGVAWYQQKPGKAPKLLIYSASYRYTGVPSRFSGSGSGTDFTLTISSLQPEDFATYYCQQYYIYPYTFGQGTKVEIKR",
    "reported": 37
  },
  {
    "binder": "Variant 12471 (antibody, human IgG1, kappa, name in Kabat numbering, V domains shown, Kabat numbering; also called v12471; FSA version of v9996) VH: EVQLVESGGGLVQPGGSLRLSCAASGFTFADYTMDWVRQAPGKGLEWVGDVNPNSGGSIYNQRFKGRFTFSVDRSKNTLYLQMNSLRAEDTAVYYCARNLGPSFYFDYWGQGTLVTVSS VL: DIQMTQSPSSLSASVGDRVTITCKASQDVSIGVAWYQQKPGKAPKLLIYSASYRYTGVPSRFSGSGSGTDFTLTISSLQPEDFATYYCQQYYIYPATFGQGTKVEIKR",
    "reported": 32
  },
  {
    "binder": "Variant 14020 (antibody, name in Kabat numbering, V domains shown, also called v14020) VH: EVQLVESGGGLVQPGGSLRLSCAASGFTFQDYTMDWVRQAPGKGLEWVGDVNPNSGGSIYNQRFKGRFTFSVDRSKNTLYLQMNSLRAEDTAVYYCARNLGPWFYFDYWGQGTLVTVSS VL: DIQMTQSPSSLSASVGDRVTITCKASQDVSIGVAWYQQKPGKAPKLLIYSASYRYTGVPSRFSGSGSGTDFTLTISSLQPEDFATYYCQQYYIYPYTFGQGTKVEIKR",
    "reported": 55
  },
  {
    "binder": "Variant 14018 (antibody, name in Kabat numbering, V domains shown, also called v14018) VH: EVQLVESGGGLVQPGGSLRLSCAASGFTFTDYTMDWVRQAPGKGLEWVGDVNPNSGGSIYNQRFKGRFTFSVDRSWNTLYLQMNSLRAEDTAVYYCARNLGPSFYFDYWGQGTLVTVSS VL: DIQMTQSPSSLSASVGDRVTITCKASQDVSIGVAWYQQKPGKAPKLLIWSASYRYTGVPSRFSGSGSGTDFTLTISSLQPEDFATYYCQQYYIYPYTFGQGTKVEIKR",
    "reported": 32
  },
  {
    "binder": "Variant 14023 (antibody, name in Kabat numbering, V domains shown, also called v14023) VH: EVQLVESGGGLVQPGGSLRLSCAASGFTFQDYTMDWVRQAPGKGLEWVGDVNPNSGGSIYNQRFKGRFTFSVDRSWNTLYLQMNSLRAEDTAVYYCARNLGPWFYFDYWGQGTLVTVSS VL: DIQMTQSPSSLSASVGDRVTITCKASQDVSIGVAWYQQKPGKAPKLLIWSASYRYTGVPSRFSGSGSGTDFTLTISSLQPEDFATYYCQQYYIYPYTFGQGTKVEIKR",
    "reported": 52
  }
]

Query: Note growth inhibition span (percentage of cells killed), NCI-N87 cells for the binder shown: Variant 14022 (antibody, name in Kabat numbering, V domains shown, also called v14022) VH: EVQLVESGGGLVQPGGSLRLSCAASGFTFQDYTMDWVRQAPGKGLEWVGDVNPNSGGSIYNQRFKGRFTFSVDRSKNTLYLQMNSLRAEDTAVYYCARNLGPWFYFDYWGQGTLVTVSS VL: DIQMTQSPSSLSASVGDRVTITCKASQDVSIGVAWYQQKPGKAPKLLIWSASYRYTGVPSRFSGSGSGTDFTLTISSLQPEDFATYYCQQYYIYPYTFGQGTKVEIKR
Reply: 63

Query: Note growth inhibition span (percentage of cells killed), NCI-N87 cells for the binder shown: Variant 14021 (antibody, name in Kabat numbering, V domains shown, also called v14021) VH: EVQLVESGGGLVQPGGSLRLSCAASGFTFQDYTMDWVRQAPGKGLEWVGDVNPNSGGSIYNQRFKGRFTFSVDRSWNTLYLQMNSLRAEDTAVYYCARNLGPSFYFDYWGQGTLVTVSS VL: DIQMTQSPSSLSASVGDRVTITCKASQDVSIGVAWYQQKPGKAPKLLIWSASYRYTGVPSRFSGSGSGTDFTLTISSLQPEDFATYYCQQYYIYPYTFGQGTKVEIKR
Reply: 44
